Where do these numbers come from? They come from paper PMC6385087.

biological target: Aβ1–42 self-aggregation (Homo sapiens); construct: Commercially available Aβ1-42 peptide was obtained from Aldrich; purchased Aldrich; assay: Aβ1–42 self-aggregation inhibition, thioflavin T fluorescence assay; assay type: biochemical; conditions: self-mediated Aβ42 aggregation, ThT fluorescence; CL = 40 μM; means of two experiments; read-out: Inhibition of Aβ-self-aggregation (%)
Sequence (P05067 672-713 limits assumed): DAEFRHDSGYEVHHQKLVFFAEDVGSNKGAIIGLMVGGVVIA
Task for the reader: assign each of the following compounds its reported inhibition at 40 µM.
Answers are plain numbers, in %.

1) COc1cc(-c2nc3ccccc3s2)ccc1OCC(=O)NCCCNc1c2c(nc3ccccc13)CCCC2 [compound 16]    33.7
2) COc1cc(-c2nc3ccccc3s2)ccc1OCC(=O)NCCNc1c2c(nc3cc(Cl)ccc13)CCCC2 [compound 15]    27

We now examine a further compound.
**Query** Entry COc1cc(-c2nc3ccccc3s2)ccc1OCC(=O)NCCNc1c2c(nc3ccccc13)CCCC2 [compound 14] has what inhibition at 40 µM?
**Result** 44.6
